meta.source: the supplement of paper PMC4862054

Consider the following compounds; for each one, report its normalised response.
# Test system: MDA-MB-436
# method_notes: normalised response (% of control), CellTiter-Glo; higher = more viable cells (100 = DMSO, 0 = benzethonium chloride kill control)
# experimental_conditions: incubation time: 72 h
The reply should contain only the number, in %.

[in] Need normalised response, item COc1cc2c(NC3CCN(C(C)C)CC3)nc(C3CCCCC3)nc2cc1OCCCN1CCCC1 [UNC0638] (10 nM)
[out] 94.8

[in] Same thing, different compound: Cc1ccc(-c2cc(C(F)(F)F)nn2-c2ccc(S(N)(=O)=O)cc2)cc1 [Celecoxib] (1000 nM)
[out] 101

[in] Now consider O=C(Cc1ccc(-c2ccc(OCCN3CCOCC3)cc2)cn1)NCc1ccccc1 [KX2-391] (1000 nM) and answer again.
[out] 25.2

[in] Another compound to look at: CNC(=O)c1cc(Oc2ccc(NC(=O)Nc3cc(C(C)(C)C)nn3-c3ccc4ncccc4c3)c(F)c2)ccn1 [Rebastinib] (1 nM)
[out] 99.5

[in] Same thing, different compound: O=C(O)CCCCC(CCSCc1ccccc1)SCc1ccccc1 (stereo not drawn) [CPI-613] (1000 nM)
[out] 99.5

[in] Next entry: COc1cc2nccc(Oc3ccc(NC(=O)Nc4cc(C)on4)c(Cl)c3)c2cc1OC [Tivozanib] (10 nM)
[out] 94.2

[in] Cc1cnc(NC(=O)Nc2cc(Br)c(C)cc2OC[C@@H]2CNCCO2)cn1 [Rabusertib] (0.1 nM) , same question.
[out] 106

[in] Next record, please: CCc1cncnc1N1CCN(Cc2nc3ccc(C(F)(F)F)cc3[nH]2)CC1 (1000 nM)
[out] 106

---

Can you tell me drug sensitivity score for the items I'm about to list?
# Test system: HCC1143
# method_notes: drug sensitivity score (DSS), CellTiter-Blue viability (DSS (AUC-based score)); higher = stronger viability inhibition; extreme values may be limits of the assay
# experimental_conditions: incubation time: 72 h
Respond using a number only.

[in] If you can, please state the reported drug sensitivity score value of `CC[C@@H]1C(=O)N(C)c2cnc(Nc3ccc(C(=O)NC4CCN(C)CC4)cc3OC)nc2N1C1CCCC1` .
[out] 13.2

[in] Next record, please: `CC(=O)Nc1cccc(-n2c(=O)n(C3CC3)c(=O)c3c(Nc4ccc(I)cc4F)n(C)c(=O)c(C)c32)c1`
[out] 9.72

[in] Another: `O=C(Cc1ccc(-c2ccc(OCCN3CCOCC3)cc2)cn1)NCc1ccccc1`
[out] 23.1

[in] And `C=CC(=O)Nc1cc2c(Nc3ccc(F)c(Cl)c3)ncnc2cc1OCCCN1CCOCC1` ?
[out] 3.63

[in] // query: `NCCCNCCSP(=O)(O)O`
[out] 0

[in] What about `CC[C@H](Nc1ncnc2[nH]cnc12)c1nc2cccc(F)c2c(=O)n1-c1ccccc1` ?
[out] 1.48

[in] Same question, `COc1cc2c(Oc3ccc4[nH]c(C)cc4c3F)ncnc2cc1OCCCN1CCCC1` this time
[out] 0

[in] Next compound up: `C[C@H]1C[C@@H]2[C@H]([C@@H](O)C[C@@]3(C)[C@H]2CC[C@]3(O)C(=O)CO)[C@@]2(C)C=CC(=O)C=C12`
[out] 0

[in] Can you handle COc1cc([C@@H]2c3cc4c(cc3[C@@H](O[C@@H]3O[C@@H]5CO[C@@H](c6cccs6)O[C@H]5[C@H](O)[C@H]3O)[C@H]3COC(=O)[C@H]23)OCO4)cc(OC)c1O [Teniposide] next?
[out] 11.7

[in] How about this compound: `CCCS(=O)(=O)Nc1ccc(F)c(C(=O)c2c[nH]c3ncc(-c4ccc(Cl)cc4)cc23)c1F`
[out] 0

[in] And `O=C(/C=C/c1cccnc1)NCCCCC1CCN(C(=O)c2ccccc2)CC1` ?
[out] 22.2

[in] Same again, this time with `CCc1cncnc1N1CCN(Cc2nc3ccc(C(F)(F)F)cc3[nH]2)CC1`
[out] 0

---

# Test system: MDA-MB-468
# method_notes: normalised response (% of control), CellTiter-Glo; higher = more viable cells (100 = DMSO, 0 = benzethonium chloride kill control)
# experimental_conditions: incubation time: 72 h
Assignment: determine reported normalised response for the given molecules.
// return numeric value only (unit: %, not printed)

[in] What value of normalised response has been reported for the following molecule? COc1cc2c(Oc3ccc4[nH]c(C)cc4c3F)ncnc2cc1OCCCN1CCCC1 [Cediranib] (100 nM)
[out] 111

[in] Next up: N#Cc1ccc(C(c2ccc(C#N)cc2)n2cncn2)cc1 [Letrozole] (1000 nM)
[out] 103

[in] # iterate: CC[C@H](C)C(=O)O[C@H]1C[C@H](O)C=C2C=C[C@H](C)[C@H](CC[C@@H](O)C[C@@H](O)CC(=O)O)[C@H]21 [Pravastatin] (1000 nM)
[out] 89.9

[in] And for O=C(O)CCCCC(CCSCc1ccccc1)SCc1ccccc1 (centres undefined) [CPI-613] (1 nM) ?
[out] 103

---

# Test system: MDA-MB-231
# method_notes: drug sensitivity score (DSS), CellTiter-Glo (DSS (AUC-based score)); higher = stronger drug effect (viability inhibition or cytotoxicity); extreme values may be limits of the assay
# experimental_conditions: incubation time: 72 h
Please go through the items and note down their drug sensitivity score.
Please reply with the value in numeric form only.

[in] Recorded drug sensitivity score for `O=C(O)C1(C(=O)O)CCC1.[NH2-].[NH2-].[Pt+2]` with MDA-MB-231, please?
[out] 0

[in] Same question for `O=C(/C=C/c1cccnc1)NCCCCC1CCN(C(=O)c2ccccc2)CC1` please.
[out] 14.8

[in] Try this compound too: `C=CCc1cccc(/C=N/NC(=O)CN2CCN(Cc3ccccc3)CC2)c1O`
[out] 2.27

[in] Again, but for `Oc1ncc(N(CCCl)CCCl)c(O)n1`
[out] 0

[in] Would you mind doing `COc1cc2c(Oc3ccc4[nH]c(C)cc4c3F)ncnc2cc1OCCCN1CCCC1` as well?
[out] 0

[in] Also `CCCS(=O)(=O)Nc1ccc(F)c(C(=O)c2c[nH]c3ncc(-c4ccc(Cl)cc4)cc23)c1F` , if possible.
[out] 0

---

# Test system: SK-BR-3
# method_notes: normalised response (% of control), CellTiter-Glo; higher = more viable cells (100 = DMSO, 0 = benzethonium chloride kill control)
# experimental_conditions: incubation time: 72 h
measure: normalised response (%)
I only need the number, in %, no unit after it.

[in] Param readout= normalised response; system= SK-BR-3; entry= O=C(O)C1(C(=O)O)CCC1.[NH2-].[NH2-].[Pt+2] [Carboplatin] (1 nM) ; returns value.
[out] 89.3

[in] Another: COc1cc2c(NC3CCN(C(C)C)CC3)nc(C3CCCCC3)nc2cc1OCCCN1CCCC1 [UNC0638] (10 nM)
[out] 85.9

[in] // same read-out, input: C=CC(=O)N1CCC[C@@H](n2nc(-c3ccc(Oc4ccccc4)cc3)c3c(N)ncnc32)C1 [Ibrutinib] (1 nM)
[out] 98.1

[in] Same question, C=CCc1cccc(/C=N/NC(=O)CN2CCN(Cc3ccccc3)CC2)c1O [PAC-1] (1 nM) this time
[out] 109

---

# Test system: Hs578T
# method_notes: normalised response (% of control), CellTox Green; higher = less cell death (100 = DMSO, 0 = benzethonium chloride kill control)
# experimental_conditions: incubation time: 72 h
Would you mind telling me the reported normalised response of each entry?
// return numeric value only (unit: %, not printed)

[in] Item O=C(Cc1ccc(-c2ccc(OCCN3CCOCC3)cc2)cn1)NCc1ccccc1 [KX2-391] (100 nM) has what recorded normalised response?
[out] -25.9

[in] Lookup C[C@H]1C[C@@H]2[C@H]([C@@H](O)C[C@@]3(C)[C@H]2CC[C@]3(O)C(=O)CO)[C@@]2(C)C=CC(=O)C=C12 [Methylprednisolone] (10000 nM)
[out] 126

[in] Then what about the compound N#Cc1ccc(C(c2ccc(C#N)cc2)n2cncn2)cc1 [Letrozole] (10000 nM) ?
[out] 66.7

[in] Likewise for O=C(O)C(=O)O.[NH-][C@@H]1CCCC[C@H]1[NH-].[Pt+2] [Oxaliplatin] (1000 nM) ?
[out] 63.9

[in] // same read-out, input: N#Cc1ccc(C(c2ccc(C#N)cc2)n2cncn2)cc1 [Letrozole] (1000 nM)
[out] 106

[in] Another compound to check: CC[C@@H]1C(=O)N(C)c2cnc(Nc3ccc(C(=O)NC4CCN(C)CC4)cc3OC)nc2N1C1CCCC1 [BI 2536] (10 nM)
[out] 89.4

[in] Same again, this time with O=C(O)C1(C(=O)O)CCC1.[NH2-].[NH2-].[Pt+2] [Carboplatin] (100 nM)
[out] 95.5

[in] Would you kindly repeat that for CC[C@H](C)C(=O)O[C@H]1C[C@H](O)C=C2C=C[C@H](C)[C@H](CC[C@@H](O)C[C@@H](O)CC(=O)O)[C@H]21 [Pravastatin] (1000 nM) ?
[out] 95.2

[in] Can you handle O=C(O)CCCCC(CCSCc1ccccc1)SCc1ccccc1 (stereo not given) [CPI-613] (10000 nM) next?
[out] 94.3

[in] Try this compound too: Nc1ncn([C@H]2C[C@H](O)[C@@H](CO)O2)c(=O)n1 [Decitabine] (10000 nM)
[out] 123

[in] Same question for CCCS(=O)(=O)Nc1ccc(F)c(C(=O)c2c[nH]c3ncc(-c4ccc(Cl)cc4)cc23)c1F [Vemurafenib] (10000 nM) please.
[out] 71.5

[in] Cool, now O=C(/C=C/c1cccnc1)NCCCCC1CCN(C(=O)c2ccccc2)CC1 [Daporinad] (1000 nM)
[out] 73.1

[in] One more compound: CC1=C(/C=C/C(C)=C/C=C/C(C)=C/C(=O)O)C(C)(C)CCC1 [Tretinoin] (1000 nM)
[out] 59.5

[in] Next: CCc1cncnc1N1CCN(Cc2nc3ccc(C(F)(F)F)cc3[nH]2)CC1 (10000 nM)
[out] 72.9

[in] One more compound: COc1cc2nccc(Oc3ccc(NC(=O)Nc4cc(C)on4)c(Cl)c3)c2cc1OC [Tivozanib] (10000 nM)
[out] 21.6

[in] // repeat for Nc1ncn([C@H]2C[C@H](O)[C@@H](CO)O2)c(=O)n1 [Decitabine] (1000 nM) and report
[out] 112

[in] Please give the result for CCCS(=O)(=O)Nc1ccc(F)c(C(=O)c2c[nH]c3ncc(-c4ccc(Cl)cc4)cc23)c1F [Vemurafenib] (100 nM) too.
[out] 103

[in] Now consider O=C(O)C1(C(=O)O)CCC1.[NH2-].[NH2-].[Pt+2] [Carboplatin] (10000 nM) .
[out] 135

[in] What would you report for CC[C@H](C)C(=O)O[C@H]1C[C@H](O)C=C2C=C[C@H](C)[C@H](CC[C@@H](O)C[C@@H](O)CC(=O)O)[C@H]21 [Pravastatin] (10000 nM) ?
[out] 115

[in] Okay, and O=C(O)C(=O)O.[NH-][C@@H]1CCCC[C@H]1[NH-].[Pt+2] [Oxaliplatin] (10000 nM) ?
[out] 107

[in] What would you report for CCN(CC)CCCC(C)Nc1c2ccc(Cl)cc2nc2ccc(OC)cc12 (stereo not given) [Mepacrine] (500 nM) ?
[out] 63.5

[in] Record: Nc1ccccc1NC(=O)c1ccc(CNC(=O)OCc2cccnc2)cc1 [Entinostat] (10000 nM)
[out] 110

[in] Similarly, C[C@H]1C[C@@H]2[C@H]([C@@H](O)C[C@@]3(C)[C@H]2CC[C@]3(O)C(=O)CO)[C@@]2(C)C=CC(=O)C=C12 [Methylprednisolone] (100 nM) ?
[out] 89

[in] Same for C[C@H]1C[C@@H]2[C@H]([C@@H](O)C[C@@]3(C)[C@H]2CC[C@]3(O)C(=O)CO)[C@@]2(C)C=CC(=O)C=C12 [Methylprednisolone] (1000 nM)
[out] 105

[in] Also, Cc1ccc(-c2cc(C(F)(F)F)nn2-c2ccc(S(N)(=O)=O)cc2)cc1 [Celecoxib] (100 nM) please.
[out] 96.8

[in] // same read-out, input: COc1cc([C@@H]2c3cc4c(cc3[C@@H](O[C@@H]3O[C@@H]5CO[C@@H](c6cccs6)O[C@H]5[C@H](O)[C@H]3O)[C@H]3COC(=O)[C@H]23)OCO4)cc(OC)c1O [Teniposide] (10000 nM)
[out] 45.6

[in] Same again, this time with O=C(Cc1ccc(-c2ccc(OCCN3CCOCC3)cc2)cn1)NCc1ccccc1 [KX2-391] (1000 nM)
[out] 38.4

[in] Same lookup for CCCS(=O)(=O)Nc1ccc(F)c(C(=O)c2c[nH]c3ncc(-c4ccc(Cl)cc4)cc23)c1F [Vemurafenib] (1000 nM) , please.
[out] 100

[in] Next record, please: Nc1nc2[nH]cc(CCc3ccc(C(=O)N[C@@H](CCC(=O)O)C(=O)O)cc3)c2c(=O)[nH]1 [Pemetrexed] (1000 nM)
[out] 101

[in] One more compound: Nc1nc2[nH]cc(CCc3ccc(C(=O)N[C@@H](CCC(=O)O)C(=O)O)cc3)c2c(=O)[nH]1 [Pemetrexed] (100 nM)
[out] 103
